Measured EC50 accompanies every entry in the list below.
target: Neuronal acetylcholine receptor; alpha3/beta4 (Homo sapiens, UniProt P30926+P32297); test: Agonist activity at alpha3beta4 nicotinic receptor expressed in human HEK cells assessed as intracellular calcium efflux by FLIPR
Sequence (P30926 whole entry): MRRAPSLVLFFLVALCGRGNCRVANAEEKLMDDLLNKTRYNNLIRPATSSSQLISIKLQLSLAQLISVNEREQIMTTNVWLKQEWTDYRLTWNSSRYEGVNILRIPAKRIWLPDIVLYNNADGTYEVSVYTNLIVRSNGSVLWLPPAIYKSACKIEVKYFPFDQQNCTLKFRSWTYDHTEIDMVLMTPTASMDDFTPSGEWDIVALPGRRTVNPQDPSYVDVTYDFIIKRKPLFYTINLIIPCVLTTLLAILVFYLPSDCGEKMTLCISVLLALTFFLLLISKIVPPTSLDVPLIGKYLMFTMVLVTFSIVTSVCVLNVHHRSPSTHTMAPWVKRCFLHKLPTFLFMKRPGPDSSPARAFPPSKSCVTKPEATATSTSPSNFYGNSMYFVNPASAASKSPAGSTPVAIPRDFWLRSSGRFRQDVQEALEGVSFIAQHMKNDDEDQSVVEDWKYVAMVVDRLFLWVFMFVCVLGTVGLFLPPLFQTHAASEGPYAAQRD
Sequence (P32297 whole entry): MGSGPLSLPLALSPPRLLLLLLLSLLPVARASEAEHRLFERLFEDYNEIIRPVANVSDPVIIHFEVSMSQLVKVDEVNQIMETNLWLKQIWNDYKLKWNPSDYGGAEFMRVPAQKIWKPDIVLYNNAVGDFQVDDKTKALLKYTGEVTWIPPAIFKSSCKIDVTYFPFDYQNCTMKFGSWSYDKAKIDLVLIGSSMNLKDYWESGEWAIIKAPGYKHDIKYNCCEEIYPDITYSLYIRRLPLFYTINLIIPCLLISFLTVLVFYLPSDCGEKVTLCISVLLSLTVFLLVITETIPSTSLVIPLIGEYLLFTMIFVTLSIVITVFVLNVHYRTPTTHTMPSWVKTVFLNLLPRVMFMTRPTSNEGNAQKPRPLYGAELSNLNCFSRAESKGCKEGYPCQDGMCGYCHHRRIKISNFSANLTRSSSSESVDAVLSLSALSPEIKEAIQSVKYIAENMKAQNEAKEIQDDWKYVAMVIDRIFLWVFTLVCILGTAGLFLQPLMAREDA
readout-type: EC50

| compound | recorded-measurement |
| --- | --- |
| Cl.Nc1ccncc1-c1ccccc1O[C@H]1C[C@@H]2CNC[C@H]1C2 (racemic) | 33.6 nM |
| COc1cncc(-c2ccccc2O[C@H]2C[C@@H]3CNC[C@H]2C3)c1.Cl (racemic) | 32.7 nM |
| CS(=O)(=O)Nc1cncc(-c2ccccc2O[C@H]2C[C@@H]3CNC[C@H]2C3)c1.Cl | 3.06 nM |
| Cl.Oc1cncc(-c2ccccc2O[C@H]2C[C@@H]3CNC[C@H]2C3)c1 | 2.99 nM |
| Cl.Fc1ccncc1-c1ccccc1O[C@H]1C[C@@H]2CNC[C@H]1C2 (racemic) | 197 nM |
| Cl.Oc1cncc(-c2ccccc2O[C@@H]2C[C@H]3CNC[C@@H]2C3)c1 | 34.4 nM |
| COc1ccncc1-c1ccccc1O[C@H]1C[C@@H]2CNC[C@H]1C2.Cl (racemic) | < 100 nM |
| CS(=O)(=O)Nc1cncc(-c2ccccc2O[C@@H]2C[C@H]3CNC[C@@H]2C3)c1.Cl | 2.92 nM |

###

Measured Efficacy accompanies every entry in the list below.
target: Neuronal acetylcholine receptor; alpha3/beta4 (Homo sapiens, UniProt P30926+P32297); assay: Agonist activity at alpha3beta4 nicotinic receptor expressed in human HEK cells assessed as intracellular calcium […] by FLIPR relative to control; format: functional, cell-based; conditions: HEK293

| compound | Efficacy, % |
| --- | --- |
| Cl.Fc1cncc(-c2ccccc2O[C@H]2C[C@@H]3CNC[C@H]2C3)c1 (racemic) | 84.5 |
| CCS(=O)(=O)Nc1cncc(-c2ccccc2O[C@H]2C[C@@H]3CNC[C@H]2C3)c1.Cl (racemic) | 108 |
| Cl.NC(=O)c1cncc(-c2ccccc2O[C@H]2C[C@@H]3CNC[C@H]2C3)c1 (stereo in doubt) | 102 |
| CS(=O)(=O)Nc1cncc(-c2ccccc2O[C@@H]2C[C@H]3CNC[C@@H]2C3)c1.Cl | 122 |
| CC(=O)Nc1cncc(-c2ccccc2O[C@H]2C[C@@H]3CNC[C@H]2C3)c1.Cl (racemic) | 100 |
| CS(=O)(=O)Nc1cncc(-c2ccccc2O[C@H]2C[C@@H]3CNC[C@H]2C3)c1 | 120 |
| CS(=O)(=O)Nc1cncc(-c2ccccc2O[C@H]2C[C@@H]3CNC[C@H]2C3)c1 (racemic) | 116 |
| Cl.Oc1ccncc1-c1ccccc1O[C@H]1C[C@@H]2CNC[C@H]1C2 (racemic) | 82 |

###

molecular target: Acetylcholine receptor; alpha1/beta1/delta/gamma (Homo sapiens, UniProt P02708+P07510+P11230+Q07001); test: Binding affinity to alpha-1-beta-gamma-delta nicotinic receptor
Sequence (P02708 whole entry): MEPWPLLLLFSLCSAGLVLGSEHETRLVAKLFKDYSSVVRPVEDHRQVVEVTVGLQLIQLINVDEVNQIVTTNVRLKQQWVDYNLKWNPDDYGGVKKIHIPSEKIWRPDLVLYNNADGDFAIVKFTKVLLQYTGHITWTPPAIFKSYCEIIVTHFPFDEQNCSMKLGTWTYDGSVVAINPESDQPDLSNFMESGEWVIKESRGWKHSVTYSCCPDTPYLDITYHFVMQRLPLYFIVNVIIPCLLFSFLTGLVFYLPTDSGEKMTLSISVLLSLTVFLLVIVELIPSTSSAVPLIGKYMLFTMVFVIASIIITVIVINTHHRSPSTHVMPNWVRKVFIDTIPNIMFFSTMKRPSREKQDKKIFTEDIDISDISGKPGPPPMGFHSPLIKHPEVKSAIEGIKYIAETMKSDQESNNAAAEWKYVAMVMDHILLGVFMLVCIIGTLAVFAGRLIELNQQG
Sequence (P07510 whole entry): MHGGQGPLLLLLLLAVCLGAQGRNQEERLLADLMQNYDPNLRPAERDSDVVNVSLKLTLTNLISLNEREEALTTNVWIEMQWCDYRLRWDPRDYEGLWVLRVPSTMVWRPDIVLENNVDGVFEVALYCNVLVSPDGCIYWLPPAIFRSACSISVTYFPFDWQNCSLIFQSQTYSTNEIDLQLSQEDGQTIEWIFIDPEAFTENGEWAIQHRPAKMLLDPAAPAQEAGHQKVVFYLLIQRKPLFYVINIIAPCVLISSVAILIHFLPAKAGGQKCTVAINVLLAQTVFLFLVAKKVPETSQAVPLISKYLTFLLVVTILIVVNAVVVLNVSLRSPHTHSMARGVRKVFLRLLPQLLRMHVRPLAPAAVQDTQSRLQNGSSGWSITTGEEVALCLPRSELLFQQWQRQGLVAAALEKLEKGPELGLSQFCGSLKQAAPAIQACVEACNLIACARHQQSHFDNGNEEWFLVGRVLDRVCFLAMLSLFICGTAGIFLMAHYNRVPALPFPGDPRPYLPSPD
Sequence (P11230 whole entry): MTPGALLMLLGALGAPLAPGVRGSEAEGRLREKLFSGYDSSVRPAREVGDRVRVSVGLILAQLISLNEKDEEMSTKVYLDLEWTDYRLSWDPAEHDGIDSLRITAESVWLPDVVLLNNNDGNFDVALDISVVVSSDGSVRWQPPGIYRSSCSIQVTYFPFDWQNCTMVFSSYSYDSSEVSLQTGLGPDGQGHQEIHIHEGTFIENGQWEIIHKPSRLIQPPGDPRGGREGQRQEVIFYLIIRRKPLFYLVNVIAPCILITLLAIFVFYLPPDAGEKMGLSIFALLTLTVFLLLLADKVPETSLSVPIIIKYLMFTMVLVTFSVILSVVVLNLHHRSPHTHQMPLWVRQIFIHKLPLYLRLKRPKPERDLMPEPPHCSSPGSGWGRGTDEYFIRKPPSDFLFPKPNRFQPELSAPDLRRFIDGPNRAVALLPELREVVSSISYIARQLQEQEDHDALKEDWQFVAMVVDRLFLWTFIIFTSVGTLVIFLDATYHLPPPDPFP
Sequence (Q07001 whole entry): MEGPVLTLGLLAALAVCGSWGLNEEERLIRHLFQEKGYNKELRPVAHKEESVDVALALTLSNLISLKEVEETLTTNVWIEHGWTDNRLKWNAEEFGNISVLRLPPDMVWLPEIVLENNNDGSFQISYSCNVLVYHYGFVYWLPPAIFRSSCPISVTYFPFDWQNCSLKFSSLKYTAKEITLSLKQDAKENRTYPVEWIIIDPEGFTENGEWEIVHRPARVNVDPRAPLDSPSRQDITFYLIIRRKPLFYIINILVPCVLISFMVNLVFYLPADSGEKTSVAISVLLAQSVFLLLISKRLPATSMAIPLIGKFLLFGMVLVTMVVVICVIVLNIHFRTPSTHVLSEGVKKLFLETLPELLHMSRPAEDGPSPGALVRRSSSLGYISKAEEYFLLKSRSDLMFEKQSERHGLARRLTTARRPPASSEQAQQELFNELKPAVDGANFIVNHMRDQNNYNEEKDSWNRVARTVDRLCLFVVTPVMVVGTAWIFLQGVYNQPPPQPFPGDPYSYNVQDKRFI
Measured Ki accompanies every entry in the list below.
readout-type: Ki (µM)

| compound | readout-type | readout-relation | recorded-measurement |
| --- | --- | --- | --- |
| Cl.c1cncc(-c2ccccc2O[C@H]2C[C@@H]3CNC[C@H]2C3)c1 | Ki | = | 1.02 |
| Cl.Nc1cncc(-c2ccccc2O[C@H]2C[C@@H]3CNC[C@H]2C3)c1 (racemic) | Ki | > | 15 |
| Cl.Nc1ccncc1-c1ccccc1O[C@H]1C[C@@H]2CNC[C@H]1C2 (racemic) | Ki | = | 4.43 |
| CS(=O)(=O)Nc1cncc(-c2ccccc2O[C@H]2C[C@@H]3CNC[C@H]2C3)c1.Cl | Ki | = | 11.7 |
| CS(=O)(=O)Nc1ccncc1-c1ccccc1O[C@H]1C[C@@H]2CNC[C@H]1C2.Cl (racemic) | Ki | > | 15 |
| Cl.Oc1cncc(-c2ccccc2O[C@@H]2C[C@H]3CNC[C@@H]2C3)c1 | Ki | = | 8.32 |
| CC(C)S(=O)(=O)Nc1cncc(-c2ccccc2O[C@H]2C[C@@H]3CNC[C@H]2C3)c1.Cl (racemic) | Ki | = | 4.24 |
| CC(=O)Nc1cncc(-c2ccccc2O[C@H]2C[C@@H]3CNC[C@H]2C3)c1.Cl (racemic) | Ki | = | 0.53 |

Hey, just so you know, these numbers are from ChEMBL document CHEMBL1208792.
